Target under test: UniProt:P08183
Sequence (P08183 whole entry): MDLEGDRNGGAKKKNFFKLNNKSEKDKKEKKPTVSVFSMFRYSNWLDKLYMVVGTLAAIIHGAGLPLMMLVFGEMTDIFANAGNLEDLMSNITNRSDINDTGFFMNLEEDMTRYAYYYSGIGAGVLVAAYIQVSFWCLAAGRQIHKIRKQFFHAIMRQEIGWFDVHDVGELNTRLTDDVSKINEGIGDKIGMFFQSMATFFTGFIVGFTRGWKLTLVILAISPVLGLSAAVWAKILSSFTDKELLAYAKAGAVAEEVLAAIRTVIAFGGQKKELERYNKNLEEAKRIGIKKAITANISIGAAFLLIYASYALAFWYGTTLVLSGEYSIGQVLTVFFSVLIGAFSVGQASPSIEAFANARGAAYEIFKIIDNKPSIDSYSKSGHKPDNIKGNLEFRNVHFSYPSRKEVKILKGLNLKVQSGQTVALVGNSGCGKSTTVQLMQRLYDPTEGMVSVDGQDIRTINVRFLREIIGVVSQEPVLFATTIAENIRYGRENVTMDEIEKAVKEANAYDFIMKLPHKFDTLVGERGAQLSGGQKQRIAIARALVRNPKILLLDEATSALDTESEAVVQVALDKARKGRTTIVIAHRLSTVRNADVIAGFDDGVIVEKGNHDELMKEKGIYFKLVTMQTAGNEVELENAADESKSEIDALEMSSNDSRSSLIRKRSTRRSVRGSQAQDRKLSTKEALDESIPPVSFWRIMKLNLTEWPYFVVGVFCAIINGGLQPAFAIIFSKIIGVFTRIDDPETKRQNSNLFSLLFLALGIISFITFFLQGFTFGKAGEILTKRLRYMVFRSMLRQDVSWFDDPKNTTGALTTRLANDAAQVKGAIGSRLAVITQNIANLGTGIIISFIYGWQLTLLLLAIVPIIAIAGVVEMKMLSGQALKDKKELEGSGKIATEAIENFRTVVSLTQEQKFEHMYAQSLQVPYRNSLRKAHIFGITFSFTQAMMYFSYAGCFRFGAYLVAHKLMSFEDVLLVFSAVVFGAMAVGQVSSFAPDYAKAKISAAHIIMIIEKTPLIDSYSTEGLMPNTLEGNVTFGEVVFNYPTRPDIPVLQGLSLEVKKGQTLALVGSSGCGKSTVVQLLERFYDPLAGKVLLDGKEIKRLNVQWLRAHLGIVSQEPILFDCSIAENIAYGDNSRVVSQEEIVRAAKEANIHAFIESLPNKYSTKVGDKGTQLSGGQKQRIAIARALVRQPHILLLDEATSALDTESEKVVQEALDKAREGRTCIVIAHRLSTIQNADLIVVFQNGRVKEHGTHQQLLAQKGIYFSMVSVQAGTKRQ
Test: Inhibition of human ABCB1 expressed in mouse T-lymphoma cells assessed as rhodamine-123 accumulation by measuring fluorescence activity ratio at 1 uM by flow cytometry relative to control
Type: cell-based
Lab note: cut-off is 4. Strictly less in Ratio is fulfilled. Exactly 4 or more is not fulfilled.

{"Compound smiles": "CCOC(=O)C1=CN(c2ccc(OC)cc2)C=C(C(=O)OCC)C1c1cccc(OC)c1", "Group": "fulfilled"}

**Query** is_below(Ratio, 4) for `CCOC(=O)C1=CN(c2ccc(OC)cc2)C=C(C(=O)OCC)C1c1ccc(OC)c(OC)c1` ?
**Result** not fulfilled

**Query** Criterion: Ratio strictly below 4. Is it met by `CCOC(=O)C1=CN(c2ccccc2)C=C(C(=O)OCC)C1c1ccccc1` ?
**Result** not fulfilled

**Query** Please let me know if `CCOC(=O)C1=CN(c2ccccc2)C=C(C(=O)OCC)C1c1ccc(OC)c(OC)c1` shows Ratio below 4.
**Result** not fulfilled

**Query** Find out if reported Ratio for `CCOC(=O)C1=CN(c2ccccc2)C=C(C(=O)OCC)C1c1cccc(OC)c1` is less than 4
**Result** fulfilled

**Query** Just wondering, is Ratio of `CCOC(=O)C1=CN(c2ccc(OC)cc2)C=C(C(=O)OCC)C1c1ccc(OC)cc1` below 4?
**Result** fulfilled
